biological target: FLuc-C-HiBiT (Photinus pyralis); construct: firefly luciferase with C-terminal HiBiT tag, E. coli expressed; test: biochemical; conditions: enzyme activity, 10 uM ATP; read-out: IC50 or SDR50 (mM) / FLuc E
Sequence (P08659 whole entry, looked up): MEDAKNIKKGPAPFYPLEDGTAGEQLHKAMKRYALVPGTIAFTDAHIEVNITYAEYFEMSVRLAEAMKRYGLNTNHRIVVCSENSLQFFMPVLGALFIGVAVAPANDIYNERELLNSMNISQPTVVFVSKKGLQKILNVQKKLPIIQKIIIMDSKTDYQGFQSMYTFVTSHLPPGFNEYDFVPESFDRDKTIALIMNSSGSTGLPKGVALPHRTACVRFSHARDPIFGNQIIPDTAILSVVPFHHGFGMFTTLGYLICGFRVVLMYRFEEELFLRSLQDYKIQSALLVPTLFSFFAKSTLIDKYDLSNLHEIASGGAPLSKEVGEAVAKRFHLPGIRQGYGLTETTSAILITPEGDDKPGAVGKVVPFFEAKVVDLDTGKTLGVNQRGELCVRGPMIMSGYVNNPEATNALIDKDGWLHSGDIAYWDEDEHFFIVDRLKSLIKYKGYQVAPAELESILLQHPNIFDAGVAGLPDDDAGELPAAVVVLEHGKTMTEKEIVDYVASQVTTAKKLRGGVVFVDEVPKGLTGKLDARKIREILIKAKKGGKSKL

{"molecule": "COc1ccc(C(=O)Nc2ccccc2-c2nc3ccccc3s2)cc1OC [NCGC00102625-01]", "target.or.system": "FLuc-C-HiBiT (Photinus pyralis)", "IC50": "> 0.03 mM"}
{"molecule": "Cc1csc(NC(=O)c2ccc3c(c2)OCC(=O)N(C)C3)n1 [NCGC00418513-01]", "target.or.system": "FLuc-C-HiBiT (Photinus pyralis)", "IC50": "0.018 mM"}
{"molecule": "COc1ccccc1-c1cc2nc(C)c(CCC(=O)O)c(C)n2n1 [NCGC00108411-01]", "target.or.system": "FLuc-C-HiBiT (Photinus pyralis)", "IC50": "0.0124 mM"}
{"molecule": "CSc1ccc(-c2nc3c([nH]2)CC(C)(C)CNC3=O)cc1 [NCGC00448280-01]", "target.or.system": "FLuc-C-HiBiT (Photinus pyralis)", "IC50": "0.0124 mM"}
{"molecule": "COc1ccc(-c2nc3ccccc3s2)cc1NC(=O)c1cccc([N+](=O)[O-])c1C [NCGC00102361-01]", "target.or.system": "FLuc-C-HiBiT (Photinus pyralis)", "IC50": "0.00624 mM"}
{"molecule": "CN1CCCCCCN(C(=O)Nc2ccc3c(c2)OCCO3)CCC1=O [NCGC00466735-01]", "target.or.system": "FLuc-C-HiBiT (Photinus pyralis)", "IC50": "0.00989 mM"}
{"molecule": "O=[S+]([O-])(c1cccc(C(F)(F)F)c1)n1c(/C=C/c2ccccc2)nc2ccccc21 [NCGC00139418-01]", "target.or.system": "FLuc-C-HiBiT (Photinus pyralis)", "IC50": "0.000556 mM"}
{"molecule": "Cc1ccc(-c2cc3c(=O)n(CCNC(=O)c4nccc5ccccc45)ccn3n2)c(C)c1 [NCGC00456974-01]", "target.or.system": "FLuc-C-HiBiT (Photinus pyralis)", "IC50": "0.00881 mM"}
